The following compounds each carry a recorded IC50 for human DGAT2 (hDGAT2) (Homo sapiens (Human), UniProt Q96PD7).
Your answer is read as nM, so omit the unit and give the number.

// known answers, use as guide
# compound, value_observed
measured = [
    ("C[C@H](NC(=O)c1ccc2c(-c3ccccc3Cl)cn(-c3ccc(F)cc3)c2c1)c1ccc(C(F)(F)F)nc1 [Example 6]", 476),
    ("O=C(NC1CCS(=O)(=O)C1)c1ccc2c(-c3cc(Cl)cc(Cl)c3)cn(-c3ccc(F)cc3)c2c1 (racemic) [Example 41]", 88),
    ("O=C(NC1CCS(=O)(=O)C1)c1ccc2c(-c3ccccc3Cl)cn(-c3ccc(F)cc3)c2c1 (single isomer, unassigned) [Example 2-B]", 30),
]

Now turn to the next compound.
## Task Please look up its IC50: COC(=O)c1cccc(-c2cn(-c3ccc(F)cc3)c3cc(C(=O)NC4CCS(=O)(=O)C4)ccc23)c1 (racemic) [Example 32]
## Result 3.2

###

Consider the following compounds and their measured IC50 readings.
Biological target: human DGAT2 (hDGAT2) (Homo sapiens (Human))
API: value field is a number in nM; no unit string.

Answered cases to consult:
# compound, unit_abbreviation, value_observed
data = [
    ("CC1(NC(=O)c2ccc3c(-c4ccccc4Cl)cn(-c4ccc(F)cc4)c3c2)CCS(=O)(=O)C1 (single isomer, unassigned; enantiomer a) [Example 1-A]", "nM", 5.6),
    ("O=C(NC1CCS(=O)(=O)C1)c1ccc2c(-c3cccc(C4CC4)c3)cn(-c3ccc(F)cn3)c2c1 (single isomer, unassigned; enantiomer a)", "nM", 2.1),
]

Now turn to the next compound.
## Task Name the recorded IC50 for CC1(NC(=O)c2ccc3c(-c4cccc(C5CC5)c4)cn(-c4ccc(F)cn4)c3c2)CCS(=O)(=O)C1 (single isomer, unassigned; enantiomer b) .
## Result 0.73

###

Molecular target: human DGAT2 (hDGAT2) (Homo sapiens (Human), UniProt Q96PD7)
Sequence (Q96PD7 whole entry): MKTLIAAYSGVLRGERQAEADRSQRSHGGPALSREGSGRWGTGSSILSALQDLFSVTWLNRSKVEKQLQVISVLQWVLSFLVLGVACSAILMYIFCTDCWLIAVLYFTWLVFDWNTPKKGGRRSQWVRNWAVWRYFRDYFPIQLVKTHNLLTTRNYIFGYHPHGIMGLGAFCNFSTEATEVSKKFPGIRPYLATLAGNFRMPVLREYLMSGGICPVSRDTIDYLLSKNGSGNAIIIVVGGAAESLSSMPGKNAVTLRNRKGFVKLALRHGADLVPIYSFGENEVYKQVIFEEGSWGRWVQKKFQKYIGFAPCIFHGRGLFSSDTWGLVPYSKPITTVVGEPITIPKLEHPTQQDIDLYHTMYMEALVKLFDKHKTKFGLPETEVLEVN
// returns 0 (no) unless IC50 is strictly below 60 nM, in which case 1 (yes)

Use these answered entries as a reference point.
# molecule, system_tested, class
measured = [
    ("CC(C)(CN1CCOCC1)NC(=O)c1ccc2c(-c3ccccc3Cl)cn(-c3ccc(F)cc3)c2c1", "human DGAT2 (hDGAT2) (Homo sapiens (Human), UniProt Q96PD7)", "0 (no)"),
    ("O=C(NC1CCS(=O)(=O)C1)c1ccc2c(-c3c(F)cccc3F)cn(-c3ccc(F)cc3)c2c1 (racemic)", "human DGAT2 (hDGAT2) (Homo sapiens (Human), UniProt Q96PD7)", "1 (yes)"),
]

## Task Threshold test, IC50 < 60 nM: O=C(NC1CCS(=O)(=O)C1)c1ccc2c(-c3cncnc3)cn(-c3ccc(F)cc3)c2c1 (racemic)
## Result 0 (no)

## Task Also, O=C(NC1CCS(=O)(=O)C1)c1ccc2c(-c3ccc(OC(F)F)cc3)cn(-c3ccc(F)cc3)c2c1 (racemic) please.
## Result 0 (no)

## Task Then CC1(NC(=O)c2ccc3c(-c4cccc(OC(F)F)c4)cn(-c4ccc(F)cn4)c3c2)CCS(=O)(=O)C1 (single isomer, unassigned; enantiomer a) ?
## Result 1 (yes)

###

Molecular target: UniProt:Q96PD7
quantity_kind: IC50 (nM)
Enter your answer as a number in nM; do not include the unit.

# compound, system_tested, quantity_kind, value_observed
measured = [
    ("Cc1c(-c2ccccc2Cl)c2ccc(C(=O)NC3(C)CCS(=O)(=O)C3)cc2n1-c1ccc(F)cc1 (single isomer, unassigned; enantiomer a) [Example 8-A]", "UniProt:Q96PD7", "IC50", 934),
    ("CC1(NC(=O)c2ccc3c(-c4ccccc4Cl)cn(-c4ccc(F)cc4)c3c2)CCS(=O)(=O)C1 (racemic) [Example 1]", "UniProt:Q96PD7", "IC50", 8.8),
    ("CC1(NC(=O)c2ccc3c(-c4ccccc4Cl)c(C#N)n(-c4ccc(F)cc4)c3c2)CCS(=O)(=O)C1 (single isomer, unassigned; enantiomer b)", "UniProt:Q96PD7", "IC50", 235),
    ("Cn1ccc2cc(-c3cn(-c4ccc(F)cc4)c4cc(C(=O)NC5CCS(=O)(=O)C5)ccc34)ccc21 (racemic)", "UniProt:Q96PD7", "IC50", 102),
    ("O=C(NC1CCS(=O)(=O)C1)c1ccc2c(-c3cccc(Cl)c3)cn(-c3ccc(F)cc3)c2c1 (racemic)", "UniProt:Q96PD7", "IC50", 28),
]

# ---- query compound ----
## Task Requested field: IC50. Item: Cc1cccc(-c2cn(-c3ccc(F)cc3)c3cc(C(=O)NC4CCS(=O)(=O)C4)ccc23)c1 (racemic)
## Result 13

###

Biological target: human DGAT2 (hDGAT2) (Homo sapiens (Human), UniProt Q96PD7)
Experiment: DGAT2 enzymatic activity assay (triolein formation, LC/MS/MS)
Format: biochemical
Settings: Sf-9 membrane prep expressing hDGAT2; 25 μM diolein, 10 μM oleoyl-CoA; triolein by LC/MS/MS
quantity_kind: log10 of IC50 (log10 of the value in nM)
Values reflect log10 of reported IC50 (nM).

## Task Which log10 of IC50 is reported with human DGAT2 (hDGAT2) (Homo sapiens (Human), UniProt Q96PD7) for this entry: O=C(NC1CCS(=O)(=O)C1)c1ccc2c(-c3ccccn3)cn(-c3ccc(F)cc3)c2c1 (racemic) ?
## Result 2.82

## Task And for O=C(NC1CCS(=O)(=O)C1)c1ccc2c(-c3ccccc3OC(F)F)cn(-c3ccc(F)cc3)c2c1 (racemic) ?
## Result 2.03

## Task Now consider N#Cc1cccc(-c2cn(-c3ccc(F)cc3)c3cc(C(=O)NC4CCS(=O)(=O)C4)ccc23)c1 (racemic) and answer again.
## Result 1.11

###

Here's what we have: pIC50 numbers for human DGAT2 (hDGAT2) (Homo sapiens (Human), UniProt Q96PD7).
Field pIC50 (float): negative decimal logarithm of the concentration in molar.

# molecule, value_observed
rows = [
    ("COC(=O)c1cc(-c2cn(-c3ccc(F)cc3)c3cc(C(=O)NC4CCS(=O)(=O)C4)ccc23)cs1 (racemic) [Example 60]", 6.76),
    ("Cn1cc(-c2cn(-c3ccc(F)cc3)c3cc(C(=O)NC4CCS(=O)(=O)C4)ccc23)cn1 (racemic) [Example 54]", 6.46),
    ("Cc1c(-c2ccccc2Cl)c2ccc(C(=O)NC3(C)CCS(=O)(=O)C3)cc2n1-c1ccc(F)cc1 (single isomer, unassigned; enantiomer b) [Example 8-B]", 6.16),
    ("O=C(NC1CCS(=O)(=O)C1)c1ccc2c(-c3cccc(Cl)c3Cl)cn(-c3ccc(F)cc3)c2c1 (racemic) [Example 44]", 7.72),
    ("O=C(NC1CCS(=O)(=O)C1)c1ccc2c(-c3c(F)cccc3Cl)cn(-c3ccc(F)cc3)c2c1 (racemic) [Example 49]", 6.81),
    ("O=C(NC1CCS(=O)(=O)C1)c1ccc2c(-c3cccc(OC(F)F)c3)cn(-c3ccc(F)cn3)c2c1 (single isomer, unassigned; enantiomer a) [Example 13-A]", 8.74),
]

## Task Item under review: O=C(NC1CCS(=O)(=O)C1)c1ccc2c(-c3cccc(F)c3)cn(-c3ccc(F)cc3)c2c1 (racemic) [Example 35] . Reported pIC50?
## Result 7.00

## Task What about O=C(NC1CCS(=O)(=O)C1)c1ccc2c(-c3cccnc3)cn(-c3ccc(F)cc3)c2c1 (racemic) [Example 52] ?
## Result 6.89

## Task Please answer likewise for O=C(NC1CCS(=O)(=O)C1)c1ccc2c(-c3cc(Cl)ccn3)cn(-c3ccc(F)cc3)c2c1 (racemic) [Example 21]
## Result 6.60

## Task Entry O=C(NC1CCS(=O)(=O)C1)c1ccc2c(-c3ccccc3)cn(-c3ccc(F)cc3)c2c1 (racemic) [Example 43] please
## Result 7.26
